System: TAG
Assay Method Text: TAG lipid buildup inhibition with viability readout – cell-based, panel, Nile Red and DAPI fluorescence, H9c2, dose response (AID 651630);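 also: cells exposed to compound overnight before fixation and staining; hits lower the Nile Red lipid signal and are scored as TAG inhibitors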
Condition Context: H9c2 cells, Nile Red TAG fluorescence, oleic acid, mean of runs
Calls of active or inactive are those of the source.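 The calls were made as follows: active = lipid-stain IC50 at or below a set limit, with nuclear-stain toxicity IC50 at least five times higher; inactive = the rest.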
Result category, one only: 1 (yes) = active, 0 (no) = inactive

compound="CN1N=C(N)c2cn(C3OC(COP(=O)(O)O)C(O)C3O)c3ncnc1c23 (centres undefined)" category="1 (yes)"
compound=CCN(CC)CCCN(C(=O)c1cccs1)c1nc(-c2ccc(OC)cc2)cs1 category="1 (yes)"
compound=CCC(=O)Nc1ccc(-c2nnc(-c3ccccc3)o2)cc1 category="0 (no)"
compound=COC(=O)c1cc(NC(=O)c2c(Cl)nc3sccn23)cc(C(=O)OC)c1 category="0 (no)"
compound=CCOC(=O)/C(=N\Nc1ccc(Cl)cc1)c1csc(Nc2ccccc2)n1 category="1 (yes)"

Per the assay record, what outcome was assigned to COc1cc(C2c3cc4c(cc3OC(C)(N3CCCC3)C2C)OCO4)cc(OC)c1OC (centres undefined) ?
1 (yes)

Also, COC(=O)Nc1nc2ccc(Sc3ccccc3)cc2[nH]1 please.
0 (no)

Also, CCN1C(=O)[C@H]2[C@@H](c3ccc(-c4ccccc4)c(OC)c3)N[C@@](CC(C)C)(C(=O)OC)[C@H]2C1=O please.
1 (yes)

Also, O=[N+]([O-])c1cc(S(=O)(=O)Nc2cccc(Cl)c2)ccc1N/N=C/c1ccc(N2CCOCC2)cc1 please.
1 (yes)

Also, CCOCCC(=O)Nc1ccc2c(c1)c(=O)n(C)n2-c1ccc2ccccc2c1 please.
0 (no)

Also, C=CCC[C@H](Cc1ccc(F)cc1)C(=O)OC[C@@H](NC(=O)[C@@H](CC=C)CC(=O)N(CCO)Cc1ccccc1)C(C)(C)C please.
1 (yes)

Also, C[C@H]1CN([C@@H](C)CO)C(=O)Cc2cc(NC(=O)CCC(F)(F)F)ccc2O[C@H]1CN(C)S(=O)(=O)c1ccc(Cl)cc1 please.
0 (no)

Also, O=C(c1ccoc1)N1CCN(c2cc(-c3ccccc3)nc3cc(-c4ccc(Br)cc4)nn23)CC1 please.
1 (yes)

Also, O=C(CSc1nc(Nc2ccccc2)nc(N2CCOCC2)n1)N1CCCC1 please.
1 (yes)

Also, O=c1cc(-c2ccccc2)[nH]c2ccc(F)cc12 please.
0 (no)

Also, COc1ccc(-c2nc(NC(=O)C3CCN(c4nc5ccccc5o4)CC3)sc2C)cc1 please.
1 (yes)

Also, COC(=O)[C@@]1(Cc2ccc(F)cc2)[C@H]2c3cc(C(=O)N4CCCC4)n(CCCNc4ncc(C(F)(F)F)cc4Cl)c3C[C@H]2CN1C(=O)c1ccccc1 please.
1 (yes)

Also, CCN(CC)CCNc1nc(-n2nc(C)cc2C)nc2sc3c(c12)CC(C)(C)OC3 please.
0 (no)

Also, COc1cc(C2=NOC(C(=O)NCc3cccs3)C2)cc(OC)c1OC (centres undefined) please.
1 (yes)

====

Test system: TAG
Assay Method Text: TAG lipid buildup inhibition with viability readout – cell-based, panel, Nile Red and DAPI fluorescence, H9c2, dose response (AID 651630);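 also: cells exposed to compound overnight before fixation and staining; hits lower the Nile Red lipid signal and are scored as TAG inhibitors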
Condition Context: H9c2 cells, Nile Red TAG fluorescence, oleic acid, mean of runs
The source made the active and inactive calls.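 Rule for the calls: active = lipid-stain IC50 at or below a set limit, with nuclear-stain toxicity IC50 at least five times higher; inactive = the rest.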
Result category, one only: 1.0 = active, 0.0 = inactive

Previously resolved entries follow.
compound=O=C(C[C@H]1C[C@H](C(=O)N2CCOCC2)[C@@]2(CCC3CCCC3)c3[nH]c4cc(-c5ccco5)ccc4c3CCN2C1=O)NCC12CC3CC(CC(C3)C1)C2 category=1.0
compound=Cc1nn2c(N3CCCC3)cc(C(C)C)nc2c1-c1ccccc1 category=0.0
compound=CCOC(=O)[C@H]1[C@H]2COc3ccc(C)cc3[C@@H]2N2C(=O)c3cc(Br)ccc3NC(=O)[C@@]12C category=0.0
compound=COc1cc(C(=O)N2CCN(c3cc(Cl)ccc3Cl)CC2)cc(OC)c1OC category=0.0
compound="CCn1ncc(/C=N/N=C2\\CCC3C4CCc5cc(O)ccc5C4CCC23C)c1C (centres undefined)" category=0.0
compound=O=C(c1cc(-c2ccncc2)nc2c(Cl)cccc12)N1CCN(c2ccccc2F)CC1 category=1.0

Per the assay record, what outcome was assigned to Cc1cccn2c(=O)c3cc(C(=O)NC4CCCC4)c(=N)n(C4CCCC4)c3nc12 ?
1.0

Also, COc1ccc(C(C(=O)NC(C)(C)C)N(Cc2ccco2)C(=O)CCC(=O)Nc2cc(C)on2)cc1 (centres undefined) please.
0.0

Also, CN(C)c1ccc(NC(=O)Nc2nc(C(N)C3CCCCC3)cs2)cc1 (centres undefined) please.
0.0
